Tested on: luciferase
Experimental details: Additional luciferase substrate assay, compared to known analogue C-1 (Table 3)
Type: biochemical
Applied conditions: relative to C-1 (=1)
Parameter: RLU (@100 uM). Scope: all listed entries.

Structure notation	RLU (@100 uM)
O=c1c(Cc2cnns2)nc2c(Cc3ccccc3)[nH]c(-c3ccccc3)cn1-2	0.13
Cn1nc(-c2ccc(Cc3nc4c(Cc5ccccc5)[nH]c(-c5ccccc5)cn-4c3=O)s2)cc1C(F)(F)F	0.0042
CCOc1cccc(Cc2nc3c(Cc4ccccc4)[nH]c(-c4ccccc4)cn-3c2=O)c1	0.49
O=c1c(Cc2cn3ccsc3n2)nc2c(Cc3ccccc3)[nH]c(-c3ccccc3)cn1-2	0.052

----------
Each item that follows carries a reported I (relative light units, ratio in comparison to native coelenterazine).
Tested on: NanoLuc® Luciferase (Oplophorus gracilirostris, UniProt Q9GV45, A31E/A60N/A81I/F95D/I117V/K70R/L54V/L99Q/M102K/N193R/P142E/Q151K/Q38R/Q45L/V71I/Y165I)
Sequence (Q9GV45 other isoform, or with tags, fused parts or gaps with the stated changes): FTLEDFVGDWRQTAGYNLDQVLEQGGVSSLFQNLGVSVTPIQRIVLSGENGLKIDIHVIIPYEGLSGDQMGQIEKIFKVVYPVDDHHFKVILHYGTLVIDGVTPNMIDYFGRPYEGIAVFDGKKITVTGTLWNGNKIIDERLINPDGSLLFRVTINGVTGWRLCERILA
Assay type: biochemical
Applied conditions: ratio to coelenterazine (=1); initial light output three minutes after substrate addition
Quantity kind: I (relative light units, ratio in comparison to native coelenterazine)

Structure notation	Result
N#Cc1cccc(Cc2nc3c(Cc4ccccc4)[nH]c(-c4ccccc4)cn-3c2=O)c1	13.87
O=c1c(Cc2ccc(F)cc2F)nc2c(Cc3ccccc3)[nH]c(-c3ccccc3)cn1-2	38.75
COc1ccc(Cc2nc3c(Cc4ccccc4)[nH]c(-c4ccccc4)cn-3c2=O)cc1	23.333

----------
Tested on: NanoLuc® Luciferase (Oplophorus gracilirostris, UniProt Q9GV45, A31E/A60N/A81I/F95D/I117V/K70R/L54V/L99Q/M102K/N193R/P142E/Q151K/Q38R/Q45L/V71I/Y165I)
Format: biochemical
Applied conditions: ratio to coelenterazine (=1); read at five minute intervals
Half-life (signal half-life, ratio in comparison to native coelenterazine) values by entry
Quantity kind: Half-life (signal half-life, ratio in comparison to native coelenterazine)

Structure notation	Quantitative readout
COc1ccc(Cc2nc3c(Cc4ccccc4)[nH]c(-c4ccccc4)cn-3c2=O)cn1	0.14
O=c1c(Cc2ccc(F)cc2)nc2c(Cc3ccccc3)[nH]c(-c3ccccc3)cn1-2	0.16
O=c1c(Cc2cncc(F)c2)nc2c(Cc3ccccc3)[nH]c(-c3ccccc3)cn1-2	0.98
O=c1c(Cc2cc3ccccc3s2)nc2c(Cc3ccccc3)[nH]c(-c3ccccc3)cn1-2	0.33
O=c1c(Cc2ccc(Cl)nc2)nc2c(Cc3ccccc3)[nH]c(-c3ccccc3)cn1-2	0.35
Nc1ccc(Cc2nc3c(Cc4ccccc4)[nH]c(-c4ccccc4)cn-3c2=O)cc1	0.93
O=c1c(Cc2ccc(F)cc2F)nc2c(Cc3ccccc3)[nH]c(-c3ccccc3)cn1-2	0.23
O=c1c(Cc2ccc3ccccc3c2)nc2c(Cc3ccccc3)[nH]c(-c3ccccc3)cn1-2	0.72

----------
Tested on: luciferase
Experimental details: Additional luciferase substrate assay, compared to known analogue C-1 (Table 3)
Format: biochemical
Applied conditions: relative to C-1 (=1)

Structure notation	RLU (@100 uM)
Cn1cnnc1Sc1ccc(Cc2nc3c(Cc4ccccc4)[nH]c(-c4ccccc4)cn-3c2=O)o1	0.017
COCc1ccc(Cc2nc3c(Cc4ccccc4)[nH]c(-c4ccccc4)cn-3c2=O)s1	0.45
O=c1c(Cc2ccc(Cl)nc2Cl)nc2c(Cc3ccccc3)[nH]c(-c3ccccc3)cn1-2	0.023
COc1ccc(Cc2nc3c(Cc4ccccc4)[nH]c(-c4ccccc4)cn-3c2=O)cc1	0.56
CN(C)c1cccc(Cc2nc3c(Cc4ccccc4)[nH]c(-c4ccccc4)cn-3c2=O)c1	0.49
CS(=O)(=O)Nc1cccc(Cc2nc3c(Cc4ccccc4)[nH]c(-c4ccccc4)cn-3c2=O)c1	0.002
N#Cc1cccc(Cc2nc3c(Cc4ccccc4)[nH]c(-c4ccccc4)cn-3c2=O)c1	0.33
C=CCOc1ccc(Cc2nc3c(Cc4ccccc4)[nH]c(-c4ccccc4)cn-3c2=O)cc1OC	0.054
O=c1c(Cc2cccc(CO)c2)nc2c(Cc3ccccc3)[nH]c(-c3ccccc3)cn1-2	0.04
COc1cc(Cc2nc3c(Cc4ccccc4)[nH]c(-c4ccccc4)cn-3c2=O)ccc1O	0.052
CC(C)(C)c1ccc(Cc2nc3c(Cc4ccccc4)[nH]c(-c4ccccc4)cn-3c2=O)cc1	0.093
O=c1c(Cc2ccc3c(c2)OCO3)nc2c(Cc3ccccc3)[nH]c(-c3ccccc3)cn1-2	0.72
O=c1c(C/C=C/c2ccccc2)nc2c(Cc3ccccc3)[nH]c(-c3ccccc3)cn1-2	0.13
CN(C)c1ccc(Cc2nc3c(Cc4ccccc4)[nH]c(-c4ccccc4)cn-3c2=O)cn1	0.042
CCCCCCCCCCCCc1nc2c(Cc3ccccc3)[nH]c(-c3ccccc3)cn-2c1=O	0.0005
O=c1c(Cc2ccc3ccccc3c2)nc2c(Cc3ccccc3)[nH]c(-c3ccccc3)cn1-2	0.22
O=c1c(Cc2cccnc2)nc2c(Cc3ccccc3)[nH]c(-c3ccccc3)cn1-2	0.066
COc1ccc(Cc2nc3c(Cc4ccccc4)[nH]c(-c4ccccc4)cn-3c2=O)cn1	0.65
O=c1c(Cc2ccc(F)nc2F)nc2c(Cc3ccccc3)[nH]c(-c3ccccc3)cn1-2	0.26
Cc1noc(C)c1Cc1nc2c(Cc3ccccc3)[nH]c(-c3ccccc3)cn-2c1=O	0.014
Cn1c(Cc2nc3c(Cc4ccccc4)[nH]c(-c4ccccc4)cn-3c2=O)cc2sccc21	0.038

----------
Tested on: NanoLuc® Luciferase (Oplophorus gracilirostris, UniProt Q9GV45, A31E/A60N/A81I/F95D/I117V/K70R/L54V/L99Q/M102K/N193R/P142E/Q151K/Q38R/Q45L/V71I/Y165I)
Format: biochemical
Applied conditions: ratio to coelenterazine (=1); read at five minute intervals
// reported Half-life (signal half-life, ratio in comparison to native coelenterazine) for each item listed
Quantity kind: Half-life (signal half-life, ratio in comparison to native coelenterazine)

Compound	Quantitative readout
COc1ccc(Cc2nc3c(Cc4ccccc4)[nH]c(-c4ccccc4)cn-3c2=O)cc1	0.38
O=c1c(Cc2c(F)cc(F)cc2F)nc2c(Cc3ccccc3)[nH]c(-c3ccccc3)cn1-2	0.43
Cc1noc(C)c1Cc1nc2c(Cc3ccccc3)[nH]c(-c3ccccc3)cn-2c1=O	2.64
Cn1nc(-c2cccs2)cc1Cc1nc2c(Cc3ccccc3)[nH]c(-c3ccccc3)cn-2c1=O	0.57
O=c1c(Cc2ccc(Cl)nc2Cl)nc2c(Cc3ccccc3)[nH]c(-c3ccccc3)cn1-2	0.57
CC(C)(C)c1ccc(Cc2nc3c(Cc4ccccc4)[nH]c(-c4ccccc4)cn-3c2=O)cc1	0.43
O=c1c(Cc2ccc(Br)nc2)nc2c(Cc3ccccc3)[nH]c(-c3ccccc3)cn1-2	0.19
N#Cc1cccc(Cc2nc3c(Cc4ccccc4)[nH]c(-c4ccccc4)cn-3c2=O)c1	0.52
O=c1c(Cc2ccc(CN3CCOCC3)o2)nc2c(Cc3ccccc3)[nH]c(-c3ccccc3)cn1-2	1.19
Cc1ccc(Cc2nc3c(Cc4ccccc4)[nH]c(-c4ccccc4)cn-3c2=O)cn1	1.14
CN(C)c1ccc(Cc2nc3c(Cc4ccccc4)[nH]c(-c4ccccc4)cn-3c2=O)cn1	0.57
O=c1c(Cc2cnns2)nc2c(Cc3ccccc3)[nH]c(-c3ccccc3)cn1-2	1.19
O=c1c(Cc2csc3ccccc23)nc2c(Cc3ccccc3)[nH]c(-c3ccccc3)cn1-2	0.52
O=c1c(Cc2ccc(F)nc2)nc2c(Cc3ccccc3)[nH]c(-c3ccccc3)cn1-2	0.93
Oc1ccc(Cc2nc3c(Cc4ccccc4)nc(-c4ccc(O)cc4)cn3c2O)cc1 [coelenterazine, reference compound]	1

----------
System: luciferase
Experimental details: Additional luciferase substrate assay, compared to known analogue C-1 (Table 3)
Assay type: biochemical
Applied conditions: relative to C-1 (=1)
Entries whose RLU (@100 uM) is below 0.1 take satisfied; entries at or above 0.1 take not satisfied.

Structure notation	Cat
COCc1cc(Cc2nc3c(Cc4ccccc4)[nH]c(-c4ccccc4)cn-3c2=O)ccc1OC	satisfied
O=c1c(Cc2cc3ccccc3s2)nc2c(Cc3ccccc3)[nH]c(-c3ccccc3)cn1-2	not satisfied
O=c1c(Cc2cn(-c3ccccc3)nc2-c2ccccc2)nc2c(Cc3ccccc3)[nH]c(-c3ccccc3)cn1-2	satisfied
O=c1c(Cc2ccc(F)cc2)nc2c(Cc3ccccc3)[nH]c(-c3ccccc3)cn1-2	not satisfied
COc1nc(Cl)ccc1Cc1nc2c(Cc3ccccc3)[nH]c(-c3ccccc3)cn-2c1=O	satisfied
COc1ccc(Cc2nc3c(Cc4ccccc4)[nH]c(-c4ccccc4)cn-3c2=O)c(OC)n1	not satisfied
CC(C)Cc1ccc(Cc2nc3c(Cc4ccccc4)[nH]c(-c4ccccc4)cn-3c2=O)s1	not satisfied
O=c1c(Cc2cccc3c2oc2ccccc23)nc2c(Cc3ccccc3)[nH]c(-c3ccccc3)cn1-2	satisfied
O=C(O)c1cccc(Cc2nc3c(Cc4ccccc4)[nH]c(-c4ccccc4)cn-3c2=O)c1	satisfied
O=c1c(Cc2ccc(Br)nc2)nc2c(Cc3ccccc3)[nH]c(-c3ccccc3)cn1-2	not satisfied
O=c1c(Cc2c(F)cc(F)cc2F)nc2c(Cc3ccccc3)[nH]c(-c3ccccc3)cn1-2	not satisfied
COc1ncc(Cc2nc3c(Cc4ccccc4)[nH]c(-c4ccccc4)cn-3c2=O)cn1	satisfied
COCc1cccc(Cc2nc3c(Cc4ccccc4)[nH]c(-c4ccccc4)cn-3c2=O)c1	not satisfied
Nc1cccc(Cc2nc3c(Cc4ccccc4)[nH]c(-c4ccccc4)cn-3c2=O)c1	not satisfied
Nc1ccc(Cc2nc3c(Cc4ccccc4)[nH]c(-c4ccccc4)cn-3c2=O)cc1	satisfied
